Recorded values, source paper PMC8709211.

Experiment: Circular dichroism spectroscopy (alpha-helical content, R-value)
Format: physicochemical
Conditions: CD, 20 µM peptide in 10 mM phosphate buffer (pH 7.0); calculated per ref 31
// assign class 1 if % of alpha helix, Phosphate Buffer falls strictly below 20%, else class 0 (ties count as class 0)

*Q* A record lists KK-GLRKRLRKFRNKIKEK [CB2-sC18, sC18 conjugate bearing two meta-carborane clusters] . Is its % of alpha helix, Phosphate Buffer below 20%?
*A* class 1

*Q* And K-GLRKRLRKFRNKIKEK [CB1-sC18, sC18 conjugate bearing one meta-carborane (CB) cluster] ?
*A* class 1

*Q* And LLIILRRRIRKQAHAHSK [pVEC, VE-cadherin-derived cell-penetrating peptide, reference compound] ?
*A* class 1

*Q* And KKKK-GLRKRLRKFRNKIKEK [CB4-sC18, sC18 conjugate bearing four meta-carborane clusters] ?
*A* class 0

*Q* And KKKK‐LLIILRRRIRKQAHAHSK [CB4-pVEC, pVEC conjugate bearing four meta-carborane clusters] ?
*A* class 0

*Q* And CB‐KKKK‐LLIILRRRIRKQAHAHSK [CB5-pVEC, pVEC conjugate bearing five meta-carborane clusters] ?
*A* class 0

*Q* And K‐LLIILRRRIRKQAHAHSK [CB1-pVEC, pVEC conjugate bearing one meta-carborane cluster] ?
*A* class 1
